Kindly state log10 of TGI for each of the entries shown.
Test system: HOP-62 NSCLC
Experiment: NCI tumour cell line growth inhibition, 48 h
Would you kindly interpret these values as log10 of TGI expressed in µM?

C[As](C)SC1OC(CO)C(O)C1O (stereo not given) has a reported log10 of TGI of 1.13

"CC(=O)OCc1cc(CCC(=O)NCCNc2c3ccccc3nc3ccccc23)cc(COC(C)=O)c1O[Si](C)(C)C(C)(C)C" has a reported log10 of TGI of 1.51

"O=c1c2ccccc2[se]n1-c1cccnc1" has a reported log10 of TGI of 1.85

CCCCCCCCCCCCCCCCCCNc1ccn(C2OC(COP(=O)(O)OCC3OC(n4cc(C)c(=O)[nH]c4=O)CC3O)C(O)C2O)c(=O)n1 (stereo not given) has a reported log10 of TGI of 1.51

"CCC[CH2][Sn]([CH2]CCC)([CH2]CCC)[O]C(=O)CC" has a reported log10 of TGI of -0.38

"Oc1ccc(Cl)cc1Cc1cc(Cl)cc(Cl)c1O" has a reported log10 of TGI of 1.32

"Nc1nc(Cl)c(N)c(NC23CC4CC(CC(C4)C2)C3)n1" has a reported log10 of TGI of 0.63

"CCN1CCN(c2ccc(Nc3cc(N(C)C(=O)Nc4c(Cl)c(OC)cc(OC)c4Cl)ncn3)cc2)CC1" has a reported log10 of TGI of 1.19

CCOC(=O)/C=C/C(C(=O)/C=C/c1ccc(OC2CCCCO2)c(OC)c1)=C(O)\C=C\c1ccc(OC2CCCCO2)c(OC)c1 (stereo not given) has a reported log10 of TGI of 1.51

"O=c1[nH]c(-c2ccc3ccccc3c2)nc2ccccc12" has a reported log10 of TGI of 1.70

"CC(C)(C)c1cc(C(P(=O)(c2ccccc2)c2ccccc2)P(=O)(c2ccccc2)c2ccccc2)cc(C(C)(C)C)c1O" has a reported log10 of TGI of 0.71

"COc1cc(C(=O)c2cc(C)c3[nH]c4ccc(Cl)cc4c3c2C)cc(OC)c1OC" has a reported log10 of TGI of 1.29

"CN(C)Cc1cc(C(=O)/C=C/c2ccc(Cl)cc2)cc(CN(C)C)c1O" has a reported log10 of TGI of 1.20

"C[N+](C)([O-])CCC=C1c2ccccc2CCc2ccccc21" has a reported log10 of TGI of 1.54

CC(=O)OC1Oc2ccccc2-c2oc(=O)c(-c3cc(=O)oc4cc(O)ccc34)cc21 (stereo not given) has a reported log10 of TGI of 1.74

###

Kindly state TGI for each of the entries shown.
Test system: SNB-19 CNS
Assay: NCI tumour cell line growth inhibition, 48 h

"Oc1[nH]c2ccccc2c1N=Nc1ccccc1Cl" has a reported TGI of > 83.6 µM

O=S(O)CCCCSSCC(O)C(O)CSSCCCCS(=O)O (stereo not drawn) has a reported TGI of > 100 µM

O=Cc1ccc2c(c1)CC1(C2)Cc2ccc3c(c2C1)CCC3 (stereo not drawn) has a reported TGI of 21 µM

###

System: UACC-257 melanoma
Experiment: NCI tumour cell line growth inhibition, 48 h
experimental endpoint: TGI

"O=C1NC(=Nc2ccccc2)S/C1=C\c1ccc2ncccc2c1" has a reported TGI of > 25 µM

NC(Cc1cccc([N+](=O)[O-])c1)C(=O)O (stereo unspecified) has a reported TGI of > 100 µM

"CCOP(=O)(Cc1ccc(CP(=O)(OCC)OCC)n1C)OCC" has a reported TGI of > 100 µM

COc1ccc(N2C(=O)C(c3ccccc3)(c3ccccc3)C23C(=O)N(C)c2ccccc23)cc1 (stereo unspecified) has a reported TGI of > 100 µM

CCCCOC(=O)C1C(c2ccc(Cl)cc2)NC(c2ccc(Cl)cc2)C(C(=O)OCCCC)S1(=O)=O (stereo unspecified) has a reported TGI of > 100 µM

O=C1c2ccccc2C2(Br)C(=O)c3ccccc3C12 (stereo unspecified) has a reported TGI of > 100 µM
